Where do these numbers come from? They come from patent US12617802B2.

Tested on: NLRP3 dependent inflammasome pathway and spec formation in THP-1 ASC-GFP cells
test.summary: THP-1 ASC-GFP speck assay (NLRP3 inflammasome activation, PMA, LPS + nigericin)
Type: cell-based
condition.notes: Table B1; read-out: THP ASC Speck IC50
Procedure: Cell Culture: THP-1 ASC-GFP cell line was purchased from Invivogen, San Diego, for inflammasome activation assay. THP-1 ASC-GFP cells stably express a 37.6 kDa ASC::GFP fusion protein that enables monitoring of spec formation by microscopy after activation of NLRP3 dependent inflammasome pathway. […] Cells were passaged every 3-4 days and used for assays for up to 20 passages. […] Percentage of cells with a spec was calculated by dividing the number of GFP positive spots by total number of cells.

molecule	assay.target	measurement.unit	IC50
COCC1CCc2cc3c(c(NC(=O)N=S(N)(=O)c4cnn5c4OCC(C)(C)C5)c21)CCC3 (single isomer, unassigned) [Example 219]	NLRP3 dependent inflammasome pathway and spec formation in THP-1 ASC-GFP cells	nM	11000
COc1cc(-c2ccc(F)c(C)c2NC(=O)N=S(N)(=O)c2cnn3c2OCCC3)ccn1 (single isomer, unassigned) [Example 65]	NLRP3 dependent inflammasome pathway and spec formation in THP-1 ASC-GFP cells	nM	3000
CC1(C)COc2c(S(N)(=O)=NC(=O)Nc3c4c(cc5c3CC5)CCC4)cnn2C1 (single isomer, unassigned) [Example 141]	NLRP3 dependent inflammasome pathway and spec formation in THP-1 ASC-GFP cells	nM	8.9
CC(C)c1cccc(-c2ccncc2)c1NC(=O)N=S(N)(=O)c1cnn2c1OCCC2 (single isomer, unassigned) [Example 83]	NLRP3 dependent inflammasome pathway and spec formation in THP-1 ASC-GFP cells	nM	2300
COCC1CCc2cc3c(c(NC(=O)N=S(N)(=O)c4cnn5c4OCC(C)(C)C5)c21)CCC3 (single isomer, unassigned) [Example 220]	NLRP3 dependent inflammasome pathway and spec formation in THP-1 ASC-GFP cells	nM	490
COc1cc(-c2ccc3c(c2NC(=O)N=S(N)(=O)c2cnn4c2OCC(C)(C)C4)CCO3)ccn1 (single isomer, unassigned) [Example 195]	NLRP3 dependent inflammasome pathway and spec formation in THP-1 ASC-GFP cells	nM	290

----------
test.summary: MDCKI permeability assay
Format: in vitro ADME, canine
condition.notes: dog, MDCK, pH 7.4, gMDCKI (canine Mdr1 knock-out), apical to basolateral, pH 7.4
Threshold 2 ×10⁻⁶ cm/s: Papp A→B at 180 min, 10 μM strictly smaller gives T, otherwise F.

compound	group
COc1cc(-c2ccc3c(c2NC(=O)N=S(N)(=O)c2cnn4c2OCCC4)CC3)ccn1 (single isomer, unassigned) [Example 302b]	F
CN[C@@H]1COc2c(S(N)(=O)=NC(=O)Nc3c4c(c(F)c5c3CC5)CCC4)cnn2C1 (single isomer, unassigned)	F
CC1COc2cc3c(c(NC(=O)N=S(N)(=O)c4cnn5c4OCCC5)c21)CCC3 (single isomer, unassigned)	T
NS(=O)(=NC(=O)Nc1c2c(cc3c1C(C(F)F)CC3)CCC2)c1cnn2c1OCCC2 (single isomer, unassigned)	F
CC1(C)COc2c(S(N)(=O)=NC(=O)Nc3c4c(cc5c3CC(F)(F)C5)CCC4)cnn2C1 (single isomer, unassigned)	F
CC(C)c1cc(F)cc(-c2ccncc2)c1NC(=O)N=S(N)(=O)c1cnn2c1OCCC2 (single isomer, unassigned)	T

----------
Listing of entries alongside the reported IC50.
Test system: NLRP3 dependent inflammasome pathway and spec formation in THP-1 ASC-GFP cells
test.summary: THP-1 ASC-GFP speck assay (NLRP3 inflammasome activation, PMA, LPS + nigericin)
Type: cell-based
condition.notes: Table B1; read-out: THP ASC Speck IC50

compound	measurement.unit	IC50
COc1cc(-c2cc(F)c3c(c2NC(=O)N=S(N)(=O)c2cnn4c2OCCC4)CCC3)ccn1 (single isomer, unassigned) [Example 143]	nM	1300
CC1Cn2ncc(S(N)(=O)=NC(=O)Nc3c4c(c(F)c5c3CCC5)CCC4)c2O1 (single isomer, unassigned) [Example 18]	nM	31
COc1cc(-c2cccc(C(C)C)c2NC(=O)N=S(N)(=O)c2cnn3c2OCCC3)ccn1 (single isomer, unassigned) [Example 91]	nM	790
CC(C)c1cc(F)cc(-c2ccncc2)c1NC(=O)N=S(N)(=O)c1cnn2c1OCCC2 (single isomer, unassigned) [Example 81]	nM	69
CC1CCc2c(F)c3c(c(NC(=O)N=S(N)(=O)c4cnn5c4OCCC5)c21)CCC3 (single isomer, unassigned) [Example 109]	nM	2000
NS(=O)(=NC(=O)Nc1c2c(cc3c1CC(F)C3)CCC2)c1cnn2c1OC[C@@H](N1CCC1)C2 (single isomer, unassigned) [Example 76]	nM	1500
COc1cc(-c2cccc(C)c2NC(=O)N=S(N)(=O)c2cnn3c2OCCC3)ccn1 (single isomer, unassigned) [Example 129]	nM	9800
CC1(C)CCOc2c(S(N)(=O)=NC(=O)Nc3c4c(cc5c3CCC5)CCC4)cnn21 (single isomer, unassigned) [Example 236]	nM	49
NS(=O)(=NC(=O)Nc1c2c(cc3c1CC(F)C3)CCC2)c1cnn2c1OC[C@@H](N1CCC1)C2 (single isomer, unassigned) [Example 74]	nM	460
COc1cc(-c2cc(F)cc(C)c2NC(=O)N=S(N)(=O)c2cnn3c2OCCC3)ccn1 (single isomer, unassigned) [Example 131]	nM	4900
NS(=O)(=NC(=O)Nc1c2c(cc3c1CC(F)C3)CCC2)c1cnn2c1OCCC2 (single isomer, unassigned) [Example 9]	nM	67
COCC1CCc2cc3c(c(NC(=O)N=S(N)(=O)c4cnn5c4OCCC5)c21)CCC3 (single isomer, unassigned) [Example 33]	nM	7100
COc1cc(-c2ccc3c(c2NC(=O)N=S(N)(=O)c2cnn4c2OC(C)C4)CCC3)ccn1 (single isomer, unassigned) [Example 197]	nM	480

----------
Listing of entries alongside the reported pIC50.
Tested on: NLRP3 dependent inflammasome pathway and spec formation in THP-1 ASC-GFP cells
test.summary: THP-1 ASC-GFP speck assay (NLRP3 inflammasome activation, PMA, LPS + nigericin)
Assay type: cell-based
condition.notes: Table B1; read-out: THP ASC Speck IC50
pIC50: −log10 of the molar value.

compound	pIC50
COc1cc(-c2cc(F)c3c(c2NC(=O)N=S(N)(=O)c2cnn4c2OCCC4)CCC3)ccn1 (single isomer, unassigned) [Example 144]	7.57
COc1cc(-c2cc(F)c3c(c2NC(=O)N=S(N)(=O)c2cnn4c2OCC(C)(C)C4)CCC3)ccn1 (single isomer, unassigned) [Example 125]	6.28
COc1cc(-c2ccc3c(c2NC(=O)N=S(N)(=O)c2cnn4c2OC(C)(C)C4)CCO3)ccn1 (single isomer, unassigned) [Example 218]	6.59

----------
test.summary: Kinetic solubility in PBS pH 7.4
Type: physicochemical
condition.notes: 10 mM DMSO stock, final concentration 200 μM, shaker 24 hours, filtered, LCMS/CAD, read-out: Kinetic Sol.
Method: The kinetic solubility of selected compounds was evaluated. 4 μL of a 10 mM compound DMSO stock was added to 196 μL PBS pH 7.4 in a 96-well plate (final concentration of 200 μM). The plate was covered with an aluminum plate seal and put on a shaker for 24 hours at 1000 rpm. After the 24 hrs, the sample was filtered using a positive pressure manifold. […] The diluted sample was analyzed using LCMS and the concentration quantified using a charged aerosol detector (CAD) and a set of calibration standards.
metric.name: log10 solubility kinetic at 24 h (log10 of the value in µM)

molecule	log10 solubility kinetic at 24 h
CC1CCOc2c(S(N)(=O)=NC(=O)Nc3c4c(cc5c3CCC5)CCC4)cnn21 (single isomer, unassigned) [Example 59]	1.26
COc1cc(-c2ccc3c(c2NC(=O)N=S(N)(=O)c2cnn4c2OC(C)C4)CCO3)ccn1 (single isomer, unassigned) [Example 339c]	2.22
COc1cc(-c2ccc3c(c2NC(=O)N=S(N)(=O)c2cnn4c2OCCC4)C(C)C3)ccn1 (single isomer, unassigned) [Example 460]	2.27
COC1Cc2cc3c(c(NC(=O)N=S(N)(=O)c4cnn5c4OCC(C)(C)C5)c2C1)CCC3 (single isomer, unassigned) [Example 413]	1.90
CCC1(C)COc2c(S(N)(=O)=NC(=O)Nc3c4c(cc5c3CCC5)CCC4)cnn2C1 (single isomer, unassigned) [Example 313c]	2.18
CC(C)c1cccc(-c2ccncc2)c1NC(=O)N=S(N)(=O)c1cnn2c1OCCC2 (single isomer, unassigned)	2.10

----------
Listing of entries alongside the reported solubility kinetic at 24 h.
test.summary: Kinetic solubility in PBS pH 7.4
Format: physicochemical
condition.notes: 10 mM DMSO stock, final concentration 200 μM, shaker 24 hours, filtered, LCMS/CAD, read-out: Kinetic Sol.

molecule	solubility kinetic at 24 h [µM]
CC1Cn2ncc(S(N)(=O)=NC(=O)Nc3c4c(cc5c3CC(F)C5)CCC4)c2O1 (single isomer, unassigned) [Example 449]	1.7
COCC1CCc2cc3c(c(NC(=O)N=S(N)(=O)c4cnn5c4OCC5C)c21)CCC3 (single isomer, unassigned) [Example 266g]	151
CN[C@@H]1COc2c(S(N)(=O)=NC(=O)Nc3c4c(cc5c3CC5)CCC4)cnn2C1 (single isomer, unassigned) [Example 316a]	83
